These measurements were taken from patent US9216977B2.

Test system: KB
Test: in vitro screen against human tumor cell line KB (nasopharyngeal), GI50
Type: cell-based
Conditions: Homo sapiens, KB, Example 3, Table 1; read-out: GI50 KB
GI50 for assorted compounds
The response must be a number in µM with no trailing unit.

A selection of reference data follows.
Exercise: Give a short answer stating reported GI50 for CC[C@@]1(O)CCN2Cc3c(c4cc(OC)c(OC)cc4c4cc(OC)ccc34)C[C@H]2C1 .
Key: 0.92

Exercise: Note down GI50 recorded for COc1ccc2c3c(c4cc(OC)c(OC)cc4c2c1)C[C@H]1CC[C@H](O)CN1C3 [Compound 19b, (12S,14aR)-12-hydroxyl-cryptopleurine]
Key: 2.25

---
Exercise: Provide measured GI50 value, entry: COc1ccc2c3c(c4cc(OC)c(OC)cc4c2c1)C[C@H]1C[C@H](OC)CCN1C3 [Compound 26b, (13R,14aS)-13-methoxy-cryptopleurine]
Key: 0.1
